Biological target: T1, O12-bS
T1 chain: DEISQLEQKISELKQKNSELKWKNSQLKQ
Assay: two-hybrid library CCNG1;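 note: natural log of median RNA to DNA barcode read ratio; higher means stronger binding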
measured_parameter: interaction score
// return a plain number; no unit text

Here's what some known entries look like.
{"columns": ["binder", "interaction score"],
 "data": [
  ["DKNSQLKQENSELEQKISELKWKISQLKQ [O10-bS]", -2.63],
  ["DKNSQLKQENSELEQEISELEWEISQLEQ [O1-bS]", -0.754],
  ["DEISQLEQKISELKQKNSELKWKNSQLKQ [O12-bS]", -0.402]
]}

Let us move to another entry and its interaction score.
Would you mind telling me what interaction score value was observed for DKISQLKQEISELEQENSELEWENSQLEQ [O11-bS] ?
1.88
